- test protocol: Toxicity liver stage against HepG2, at 10uM
- Format: cell-based
- Design: test concentration 10 uM, cell line HepG2-A16-CD81EGFP
- protocol conditions: human, HepG2-A16-CD81EGFP cells; read-out: INHIBITION
# maps each entry to its cytotoxicity at 10 µM
Reply with just the number (in %).

>>> meas_value("CC(C)(C)Nc1c(C2CCN(C(=O)C(C)(C)C)CC2)nc2ccccn12")
6.53
>>> meas_value("CC(CNC(=O)c1cccnc1)Oc1ccc(F)cc1 (stereo unspecified)")
-6.98
>>> meas_value("CCn1c(CNCC2CCCN2c2cccnn2)nc2ccccc21 (stereo unspecified)")
-10.2
>>> meas_value("CC(NCc1cccn1C)c1noc(-c2ccc(Cl)cc2)n1 (stereo unspecified)")
5.07
>>> meas_value("COc1cccc(CN2CCC(c3nccn3C(C)C)CC2)c1")
-8.37
>>> meas_value("O=C1CO[C@H](c2ccc(NS(=O)(=O)Cc3ccccc3)cc2)[C@@H](CO)N1")
40.8

## Task Which measured cytotoxicity at 10 µM value corresponds to CN1C(=O)CCC12CCCN(Cc1nccs1)C2 (stereo unspecified) ?
## Result -68.8

## Task Which measured cytotoxicity at 10 µM value corresponds to "COCCN1C[C@@H](C)[C@@]2(COCCN(C(=O)c3cnc(C)cn3)C2)C1" ?
## Result -0.665

## Task Which measured cytotoxicity at 10 µM value corresponds to "Cc1ccc(CC(=O)N2CCC(Nc3ccc(C)nn3)CC2)cn1" ?
## Result -4.75

## Task Which measured cytotoxicity at 10 µM value corresponds to Cc1ccc(-c2ncc(CN3CCOC(c4ccco4)C3)s2)o1 (stereo unspecified) ?
## Result 4.37

## Task Which measured cytotoxicity at 10 µM value corresponds to "CN(C)C(=O)N[C@H]1CN(C2CCOCC2)[C@@H]2CCCO[C@H]12" ?
## Result -1.86
